Here, each record is paired with measured Carotenoid content of diet data.
- protocol.notes: Carotenoid content of Lycopene Suspension-supplemented diets after 7 months storage
- Assay type: physicochemical
- details: Diet 2, 1.0 mM/kg diet, stored at −20 °C for 7 months

Form field: reported Carotenoid content of diet of CC(C)=CCC/C(C)=C/CC/C(C)=C/C=C/C(C)=C/C=C/C=C(C)/C=C/C=C(\C)CC/C=C(\C)CCC=C(C)C [zeta-carotene]
9 μg/gm (ppm)

How about this molecule: CC(C)=CCC/C(C)=C/C=C/C(C)=C/C=C/C(C)=C/C=C/C=C(C)/C=C/C=C(C)/C=C/C1C(C(C)(C)O)CCC1(C)O (stereo not drawn) [2,6 cyclolycopene-1,5-diol]
1.4 μg/gm (ppm)

Query CC(C)=CCC/C(C)=C/C=C/C(C)=C/C=C/C(C)=C/C=C/C=C(C)/C=C/C=C(C)/C=C/C=C(\C)CCC=C(C)C [Lycopene] next
348 μg/gm (ppm)

Try CC(C)=CCC/C(C)=C/CC/C(C)=C/CC/C(C)=C/C=C/C=C(\C)CC/C=C(\C)CC/C=C(\C)CCC=C(C)C [Phytoene] next.
23 μg/gm (ppm)

Field entry: CC1=C(/C=C/C(C)=C/C=C/C(C)=C/C=C/C=C(C)/C=C/C=C(C)/C=C/C2=C(C)CCCC2(C)C)C(C)(C)CCC1 [β-carotene]
138 μg/gm (ppm)

Quick one: CC(C)=CCC/C(C)=C/CC/C(C)=C/C=C/C(C)=C/C=C/C=C(\C)CC/C=C(\C)CC/C=C(\C)CCC=C(C)C [Phytofluene]
28 μg/gm (ppm)

====

Collected Carotenoid content of diet values appear next to each entry.
- protocol.notes: Carotenoid content of Lycopene Suspension-supplemented diets after 7 months storage
- Format: physicochemical
- details: Diet 1, 2.5 mM/kg diet, stored at −20 °C for 7 months

The examples below pair each entry with its known result.
* CC(C)=CCC/C(C)=C/CC/C(C)=C/C=C/C(C)=C/C=C/C=C(\C)CC/C=C(\C)CC/C=C(\C)CCC=C(C)C [Phytofluene] | 58 μg/gm (ppm)
* CC(C)=CCC/C(C)=C/C=C/C(C)=C/C=C/C(C)=C/C=C/C=C(C)/C=C/C=C(C)/C=C/C1C(C(C)(C)O)CCC1(C)O (stereo not drawn) [2,6 cyclolycopene-1,5-diol] | 2 μg/gm (ppm)

Report Carotenoid content of diet for CC1=C(/C=C/C(C)=C/C=C/C(C)=C/C=C/C=C(C)/C=C/C=C(C)/C=C/C2=C(C)CCCC2(C)C)C(C)(C)CCC1 [β-carotene] please.
284 μg/gm (ppm)

Let us now turn to CC(C)=CCC/C(C)=C/CC/C(C)=C/CC/C(C)=C/C=C/C=C(\C)CC/C=C(\C)CC/C=C(\C)CCC=C(C)C [Phytoene]
70 μg/gm (ppm)

Same again, this time with CC(C)=CCC/C(C)=C/CC/C(C)=C/C=C/C(C)=C/C=C/C=C(C)/C=C/C=C(\C)CC/C=C(\C)CCC=C(C)C [zeta-carotene]
1 μg/gm (ppm)

Also, CC(C)=CCC/C(C)=C/C=C/C(C)=C/C=C/C(C)=C/C=C/C=C(C)/C=C/C=C(C)/C=C/C=C(\C)CCC=C(C)C [Lycopene] please.
472 μg/gm (ppm)

====

- protocol.notes: in vivo
- details: Fischer 344, rat
measurement.type: Kp

Which Kp is reported for this compound? CC(C)=CCC/C(C)=C/C=C/C(C)=C/C=C/C(C)=C/C=C/C=C(C)/C=C/C=C(C)/C=C/C=C(\C)CCC=C(C)C
100 to 1000

====

- protocol.notes: Carotenoid content of Lycopene Suspension-supplemented diets after 7 months storage
- Format: physicochemical
- details: Diet 3, 0.5 mM/kg diet, stored at −20 °C for 7 months
measurement.type: Carotenoid content of diet

# example entries with known answers
* CC(C)=CCC/C(C)=C/CC/C(C)=C/CC/C(C)=C/C=C/C=C(\C)CC/C=C(\C)CC/C=C(\C)CCC=C(C)C | 0.32 μg/gm (ppm)
* CC(C)=CCC/C(C)=C/CC/C(C)=C/C=C/C(C)=C/C=C/C=C(\C)CC/C=C(\C)CC/C=C(\C)CCC=C(C)C | 14 μg/gm (ppm)
* CC(C)=CCC/C(C)=C/CC/C(C)=C/C=C/C(C)=C/C=C/C=C(C)/C=C/C=C(\C)CC/C=C(\C)CCC=C(C)C | 4 μg/gm (ppm)
* CC(C)=CCC/C(C)=C/C=C/C(C)=C/C=C/C(C)=C/C=C/C=C(C)/C=C/C=C(C)/C=C/C1C(C(C)(C)O)CCC1(C)O (stereo not drawn) | 0.76 μg/gm (ppm)
* CC1=C(/C=C/C(C)=C/C=C/C(C)=C/C=C/C=C(C)/C=C/C=C(C)/C=C/C2=C(C)CCCC2(C)C)C(C)(C)CCC1 | 69 μg/gm (ppm)

Kindly review the next compound as well.
Recorded Carotenoid content of diet of CC(C)=CCC/C(C)=C/C=C/C(C)=C/C=C/C(C)=C/C=C/C=C(C)/C=C/C=C(C)/C=C/C=C(\C)CCC=C(C)C , please.
168 μg/gm (ppm)
